Measurement Notes: qHTS assay for small molecule disruptors of the mitochondrial membrane potential (AID 720635)
Condition: HepG2 mitochondrial membrane potential, Mito-MPS dye ratio; series mostly up to 83.2 µM
Inconclusive results are not listed. Calls of active or inactive are those of the source. Calls come from the whole dose curve; as a rule, active = well fitted inhibition curve with a large enough effect in the signal ratio in the repeat runs; inconclusive = weak or mixed curves, or effect the other way; inactive = flat fitted curve, though single readings scatter; the % refers to the signal ratio.
Valid outcomes are listed here; reply with one: T (active), F (inactive)

Molecule | Label
CC(C)c1ncc([N+](=O)[O-])n1C | F
CCCCCCCCCC(=O)NO | F
CCN(CC)CCNC(=O)c1ccc(NS(C)(=O)=O)cc1 | F
CC(C)(S)C(=O)N[C@@H](CS)C(=O)O | F
NS(=O)(=O)c1cc(Cl)c(Cl)c(S(N)(=O)=O)c1 | F
O=C(O)c1ccc(NC2OC[C@@H](O)[C@H](O)[C@H]2O)cc1 (some centres undefined) | F

Now let's try a different one.
[ask] Which result was noted for this molecule in the test: CCCCCCCCCCCC[n+]1ccc2ccccc2c1
[reply] T
